Test system: Staphylococcus epidermidis
Test: Antibacterial activity against Staphylococcus epidermidis HK6966/08 clinical isolate after 48 hrs by microdilution assay
Format: functional
Condition Parameters: HK6966/08, 48 h
Quick reference for MIC95 among some compounds
Please give a number only; it is taken to be in µM.

Compound	Parameter	Test Result
O=C1OCC(c2ccc(O)c(O)c2)=C1c1ccc(O)cc1	MIC95	500

Cc1ccc(C2=C(c3cccc(C(F)(F)F)c3)C(=O)OC2)cc1 yielded MIC95 of 15.6

The compound listed as O=C1OC(CO)(CO)C(c2ccc(Br)cc2)=C1c1cccc(Cl)c1Cl shows MIC95 equal to 250

What the record says about Cc1ccc(C2=C(c3ccc(Br)cc3)C(=O)OC2CO)cc1 (centres undefined) : MIC95 is 62.5

Note to self: MIC95 recorded for O=C1OCC(c2ccccc2)=C1c1cccc(C(F)(F)F)c1 was 31.2

Quick note, MIC95 for O=C1OCC(c2ccc(C(F)(F)F)cc2)=C1c1ccncc1 landed at 250

Documented MIC95 of O=C1OCC(c2ccc(C(F)(F)F)cc2)=C1c1ccc(Br)cc1 : 125

According to the records, this compound Cc1ccc(C2=C(c3cccc(Cl)c3)C(=O)OC2)cc1 displays MIC95 of 15.6

GET /value?item= COc1ccc(C2=C(c3cccc(Cl)c3Cl)C(=O)OC2(CO)CO)cc1 &field=MIC95 returns 250

So, COc1ccc(C2=C(c3c(Cl)cccc3Cl)C(=O)OC2)cc1 ? Its MIC95 was 250

Lookup result for Cc1ccc(C2=C(c3ccc(Br)cc3)C(=O)OC2(CO)CO)cc1 ; measured MIC95: 500

* * *

Test system: Klebsiella pneumoniae
Test: Antibacterial activity against Klebsiella pneumoniae HK14368/08 clinical isolate after 24 hrs by microdilution assay
Assay type: functional
Condition Parameters: HK14368/08, 24 h
Item-by-item account of MIC95

The cases that follow already have their MIC95 on record.
1) O=C1OC(CO)(CO)C(c2ccc(Br)cc2)=C1c1cccc(Cl)c1Cl > 500 µM
2) COc1ccc(C2=C(c3ccc(OC)c(OC)c3)COC2=O)cc1 > 125 µM

Here's the next entry for you.
// recorded MIC95 for COc1ccc(C2=C(c3ccc(S(C)(=O)=O)cc3)COC2=O)cc1 : > 500 µM

* * *

Test system: Escherichia coli
Test: Antibacterial activity against Escherichia coli ATCC 8739 after 24 hrs by microdilution assay
Assay type: functional
Condition Parameters: ATCC 8739, 24 h
Quick reference for MIC95 among some compounds

Worked examples, 3 compounds total:
1) COc1ccc(C2=C(c3cccc(Cl)c3Cl)C(=O)OC2(CO)CO)cc1 > 500 µM
2) O=C1OCC(c2ccccc2)=C1c1ccc(F)cc1 > 500 µM
3) COc1ccc(C2=C(c3ccc4c(c3)OCO4)COC2=O)cc1 > 500 µM

Reported MIC95 for Cc1ccc(C2=C(c3ccc(F)cc3)C(=O)OC2)cc1 was > 500 µM

Entry O=C(O)c1cn(C2CC2)c2cc(N3CCNCC3)c(F)cc2c1=O ; MIC95 = 0.06 µM

* * *

Tested on: Staphylococcus aureus
Test: Antibacterial activity against Staphylococcus aureus ATCC 6538 after 24 hrs by microdilution assay
Type: functional
Condition Parameters: ATCC 6538, 24 h
Parameter: MIC95

Worked cases, MIC95 given:
1. COc1ccc(C2=C(c3ccc(S(C)(=O)=O)cc3)COC2=O)cc1 > 500 µM
2. O=C1OCC(c2ccc(C(F)(F)F)cc2)=C1c1c[nH]c2ccccc12 > 125 µM

Please turn your attention to the following entry.
Record COc1ccc(C2=C(c3ccc(OC)c(OC)c3)C(CO)(CO)OC2=O)cc1 ; system Staphylococcus aureus; MIC95 = > 500 µM
